# Tested on: Staphylococcus aureus 446
# ASSAY_NAME: MIC, standard broth micro-dilution assay, SA 446
# Format: cell-based
QUANTITY_KIND: Minimal Inhibitory Concentration (MIC) SA 446
Give only the figure.

## Task Quick check: Minimal Inhibitory Concentration (MIC) SA 446 of CC(C)CC(C(=O)NC1C(=O)NC(CC(N)=O)C(=O)NC2C(=O)NC3C(=O)NC(C(=O)NC(C(=O)O)c4cc(O)cc(O)c4-c4cc3ccc4O)C(OC3CC(C)(N)C(O)C(C)O3)c3ccc(c(Cl)c3)Oc3cc2cc(c3OC2OC(CO)C(O)C(O)C2OC2CC(C)(NCc3ccc(Oc4ccccc4)cc3)C(O)C(C)O2)Oc2ccc(cc2Cl)C1O)N(C)C(=S)Nc1cccc2ccccc12 (stereo not drawn) ?
## Result 4

## Task # query: Minimal Inhibitory Concentration (MIC) SA 446 of entry CC(C)CC(C(=O)NC1C(=O)NC(CC(N)=O)C(=O)NC2C(=O)NC3C(=O)NC(C(=O)NC(C(=O)O)c4cc(O)cc(O)c4-c4cc3ccc4O)C(OC3CC(C)(N)C(O)C(C)O3)c3ccc(c(Cl)c3)Oc3cc2cc(c3OC2OC(CO)C(O)C(O)C2OC2CC(C)(NCc3ccc(Oc4ccccc4)cc3)C(O)C(C)O2)Oc2ccc(cc2Cl)C1O)N(C)C(=O)Nc1ccccc1 (stereo not drawn)
## Result 2

## Task Which value of Minimal Inhibitory Concentration (MIC) SA 446 has been reported for CC(C)C[C@H](C(=O)N[C@H]1C(=O)N[C@@H](CC(N)=O)C(=O)N[C@H]2C(=O)N[C@H]3C(=O)N[C@H](C(=O)N[C@H](C(=O)O)c4cc(O)cc(O)c4-c4cc3ccc4O)[C@H](O[C@H]3C[C@](C)(N)[C@@H](O)[C@H](C)O3)c3ccc(c(Cl)c3)Oc3cc2cc(c3O[C@@H]2O[C@H](CO)[C@@H](O)[C@H](O)[C@H]2O[C@H]2C[C@](C)(NCc3ccc(Cl)cc3)[C@@H](O)[C@H](C)O2)Oc2ccc(cc2Cl)[C@H]1O)N(C)C(=S)Nc1ccccc1 in the records?
## Result 2

----------
# System: Staphylococcus aureus 446
# ASSAY_NAME: MIC, standard broth micro-dilution assay, SA 446
# Assay type: cell-based
QUANTITY_KIND: Minimal Inhibitory Concentration (MIC) SA 446
Note: the reply should be a number with no unit written.

## Task So what Minimal Inhibitory Concentration (MIC) SA 446 did CC(C)CC(C(=O)NC1C(=O)NC(CC(N)=O)C(=O)NC2C(=O)NC3C(=O)NC(C(=O)NC(C(=O)O)c4cc(O)cc(O)c4-c4cc3ccc4O)C(OC3CC(C)(N)C(O)C(C)O3)c3ccc(c(Cl)c3)Oc3cc2cc(c3OC2OC(CO)C(O)C(O)C2OC2CC(C)(N)C(O)C(C)O2)Oc2ccc(cc2Cl)C1O)N(C)C(=S)Nc1ccc(OCc2ccccc2)cc1 (centres unmarked) get with Staphylococcus aureus 446?
## Result 1

## Task Query the reported Minimal Inhibitory Concentration (MIC) SA 446 for Staphylococcus aureus 446; item: CC(C)CC(C(=O)NC1C(=O)NC(CC(N)=O)C(=O)NC2C(=O)NC3C(=O)NC(C(=O)NC(C(=O)O)c4cc(O)cc(O)c4-c4cc3ccc4O)C(OC3CC(C)(N)C(O)C(C)O3)c3ccc(c(Cl)c3)Oc3cc2cc(c3OC2OC(CO)C(O)C(O)C2OC2CC(C)(NCc3ccc(Cl)cc3)C(O)C(C)O2)Oc2ccc(cc2Cl)C1O)N(C)C(=S)Nc1ccc(Cl)cc1 (centres unmarked)
## Result 4

## Task Short answer please: Minimal Inhibitory Concentration (MIC) SA 446, Staphylococcus aureus 446, entry COc1ccc(NC(=S)N(C)C(CC(C)C)C(=O)NC2C(=O)NC(CC(N)=O)C(=O)NC3C(=O)NC4C(=O)NC(C(=O)NC(C(=O)O)c5cc(O)cc(O)c5-c5cc4ccc5O)C(OC4CC(C)(N)C(O)C(C)O4)c4ccc(c(Cl)c4)Oc4cc3cc(c4OC3OC(CO)C(O)C(O)C3OC3CC(C)(N)C(O)C(C)O3)Oc3ccc(cc3Cl)C2O)cc1 (centres unmarked)
## Result 8

## Task Observed Minimal Inhibitory Concentration (MIC) SA 446 on Staphylococcus aureus 446 for CC(C)CC(C(=O)NC1C(=O)NC(CC(N)=O)C(=O)NC2C(=O)NC3C(=O)NC(C(=O)NC(C(=O)O)c4cc(O)cc(O)c4-c4cc3ccc4O)C(OC3CC(C)(N)C(O)C(C)O3)c3ccc(c(Cl)c3)Oc3cc2cc(c3OC2OC(CO)C(O)C(O)C2OC2CC(C)(NCc3ccc(Cl)cc3)C(O)C(C)O2)Oc2ccc(cc2Cl)C1O)N(C)C(=S)Nc1cccc2ccccc12 (centres unmarked) , please.
## Result 2

## Task Please tell me: Minimal Inhibitory Concentration (MIC) SA 446 of CC(C)CC(C(=O)NC1C(=O)NC(CC(N)=O)C(=O)NC2C(=O)NC3C(=O)NC(C(=O)NC(C(=O)O)c4cc(O)cc(O)c4-c4cc3ccc4O)C(OC3CC(C)(N)C(O)C(C)O3)c3ccc(c(Cl)c3)Oc3cc2cc(c3OC2OC(CO)C(O)C(O)C2OC2CC(C)(NCc3ccc(Oc4ccccc4)cc3)C(O)C(C)O2)Oc2ccc(cc2Cl)C1O)N(C)C(=S)Nc1ccc(OCc2ccccc2)cc1 (centres unmarked) , system Staphylococcus aureus 446?
## Result 4

## Task Hello, I am looking for reported Minimal Inhibitory Concentration (MIC) SA 446 with Staphylococcus aureus 446 for CC(C)CC(C(=O)NC1C(=O)NC(CC(N)=O)C(=O)NC2C(=O)NC3C(=O)NC(C(=O)NC(C(=O)O)c4cc(O)cc(O)c4-c4cc3ccc4O)C(OC3CC(C)(N)C(O)C(C)O3)c3ccc(c(Cl)c3)Oc3cc2cc(c3OC2OC(CO)C(O)C(O)C2OC2CC(C)(N)C(O)C(C)O2)Oc2ccc(cc2Cl)C1O)N(C)C(=S)Nc1ccc([N+](=O)[O-])cc1 (centres unmarked) . Could you help?
## Result 2

## Task Request - read-out Minimal Inhibitory Concentration (MIC) SA 446 | tested on Staphylococcus aureus 446 | compound CCCCc1ccc(NC(=S)N(C)C(CC(C)C)C(=O)NC2C(=O)NC(CC(N)=O)C(=O)NC3C(=O)NC4C(=O)NC(C(=O)NC(C(=O)O)c5cc(O)cc(O)c5-c5cc4ccc5O)C(OC4CC(C)(N)C(O)C(C)O4)c4ccc(c(Cl)c4)Oc4cc3cc(c4OC3OC(CO)C(O)C(O)C3OC3CC(C)(NCc4ccc(Oc5ccccc5)cc4)C(O)C(C)O3)Oc3ccc(cc3Cl)C2O)cc1 (centres unmarked)
## Result 2

## Task API: value(readout=Minimal Inhibitory Concentration (MIC) SA 446, system=Staphylococcus aureus 446) for record CC(C)CC(C(=O)NC1C(=O)NC(CC(N)=O)C(=O)NC2C(=O)NC3C(=O)NC(C(=O)NC(C(=O)O)c4cc(O)cc(O)c4-c4cc3ccc4O)C(OC3CC(C)(N)C(O)C(C)O3)c3ccc(c(Cl)c3)Oc3cc2cc(c3OC2OC(CO)C(O)C(O)C2OC2CC(C)(N)C(O)C(C)O2)Oc2ccc(cc2Cl)C1O)N(C)C(=S)Nc1ccc(N(C)C)cc1 (centres unmarked)
## Result 8

## Task Form field: Minimal Inhibitory Concentration (MIC) SA 446 recorded for CC(C)CC(C(=O)NC1C(=O)NC(CC(N)=O)C(=O)NC2C(=O)NC3C(=O)NC(C(=O)NC(C(=O)O)c4cc(O)cc(O)c4-c4cc3ccc4O)C(OC3CC(C)(N)C(O)C(C)O3)c3ccc(c(Cl)c3)Oc3cc2cc(c3OC2OC(CO)C(O)C(O)C2OC2CC(C)(N)C(O)C(C)O2)Oc2ccc(cc2Cl)C1O)N(C)C(=S)Nc1ccc(Cl)cc1 (centres unmarked) with Staphylococcus aureus 446 (enter value)
## Result 2

## Task Tell me reported Minimal Inhibitory Concentration (MIC) SA 446 for CC(C)C[C@H](C(=O)N[C@H]1C(=O)N[C@@H](CC(N)=O)C(=O)N[C@H]2C(=O)N[C@H]3C(=O)N[C@H](C(=O)N[C@H](C(=O)O)c4cc(O)cc(O)c4-c4cc3ccc4O)[C@H](O[C@H]3C[C@](C)(N)[C@@H](O)[C@H](C)O3)c3ccc(c(Cl)c3)Oc3cc2cc(c3O[C@@H]2O[C@H](CO)[C@@H](O)[C@H](O)[C@H]2O[C@H]2C[C@](C)(NCc3ccc(Oc4ccccc4)cc3)[C@@H](O)[C@H](C)O2)Oc2ccc(cc2Cl)[C@H]1O)N(C)C(=S)Nc1ccccc1 , tested with Staphylococcus aureus 446.
## Result 4

## Task What value of Minimal Inhibitory Concentration (MIC) SA 446 on Staphylococcus aureus 446 does CC(C)CC(C(=O)NC1C(=O)NC(CC(N)=O)C(=O)NC2C(=O)NC3C(=O)NC(C(=O)NC(C(=O)O)c4cc(O)cc(O)c4-c4cc3ccc4O)C(OC3CC(C)(N)C(O)C(C)O3)c3ccc(c(Cl)c3)Oc3cc2cc(c3OC2OC(CO)C(O)C(O)C2OC2CC(C)(NCc3ccc(-c4ccc(Cl)cc4)cc3)C(O)C(C)O2)Oc2ccc(cc2Cl)C1O)N(C)C(=S)Nc1ccccc1 (centres unmarked) have?
## Result 2

Reference source: patent US5919771A
